# system tested: PUF design 2 (human, UniProt Q14671 828-1176, C935T;R936H;Q939E;N971T;H972F;Q975R)
# Sequence (Q14671 828-1176 C935T/R936H/Q939E/N971T/H972F/Q975R): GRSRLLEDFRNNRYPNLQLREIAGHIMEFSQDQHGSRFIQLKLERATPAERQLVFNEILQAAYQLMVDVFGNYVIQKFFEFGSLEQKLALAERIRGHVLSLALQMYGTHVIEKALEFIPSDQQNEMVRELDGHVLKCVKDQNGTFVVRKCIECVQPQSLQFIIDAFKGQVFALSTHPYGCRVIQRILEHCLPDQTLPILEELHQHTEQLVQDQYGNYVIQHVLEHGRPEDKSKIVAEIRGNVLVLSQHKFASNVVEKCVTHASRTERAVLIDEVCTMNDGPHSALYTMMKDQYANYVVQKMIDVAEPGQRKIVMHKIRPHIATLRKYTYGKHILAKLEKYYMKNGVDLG
# assay procedure: EMSA; 10 mM HEPES pH 7.3, 50 mM NaCl, 2 mM DTT, 0.05% Tween 20, 0.1 mg/ml BSA, 0.1 mg/ml yeast tRNA; ~10 nM RNA, 0-1 uM protein, 1 h on ice; 1.2% agarose gel, 1x TBE, room temperature
# condition set: protein: recombinant; tags: N-terminal GST (pGEX-6P-1) removed by HRV3C protease; label: 5' 32P
result type: Kd

Task item: Read off the recorded Kd for GGUAAGUGUACGUAGUCUGCAU (ssRNA) [design 2 target RNA]
Reply: ~45 nM
